Data provenance: ChEMBL document CHEMBL1909046

protocol notes: DRUGMATRIX: Tumor Necrosis Factor (TNF), Non-Selective radioligand binding (ligand: [125I] TNF-alpha)
Assay type: cell membranes, Membrane
run conditions: u-937; Not Active = under 50% inhibition at 10 µM
Where a SMILES comes first, the peptide text is derived from it. Bridges are numbered along the chain shown (N, C = ends). [ ]: non-standard residue; d: D form. The star is where a group is joined. Ileψ(thiazoline)Cys = CC[C@H](C)[C@H](N)C1=N[C@H](C(=O)*)CS1; dOrn = NCCC[C@@H](N)C(=O)O

>  <molecule>
CC[N+](CC)(CC)CCOc1cccc(OCC[N+](CC)(CC)CC)c1OCC[N+](CC)(CC)CC.[I-].[I-].[I-] [GALLAMINE TRIETHIODIDE]

>  <Ki>
Not Active

$$$$
>  <molecule>
CC[C@H](C)[C@H](N)C1=N[C@H](C(=O)N[C@@H](CC(C)C)C(=O)N[C@H](CCC(=O)O)C(=O)N[C@H](C(=O)N[C@H]2CCCCNC(=O)[C@H](CC(N)=O)NC(=O)[C@@H](CC(=O)O)NC(=O)[C@H](Cc3cnc[nH]3)NC(=O)[C@@H](Cc3ccccc3)NC(=O)[C@H]([C@@H](C)CC)NC(=O)[C@@H](CCCN)NC2=O)[C@@H](C)CC)CS1 [BACITRACIN] ({Ileψ(thiazoline)Cys}-L[dE]IK[dOrn]I[dF]H[dD]N; lactam 4-C)

>  <Ki>
Not Active

$$$$
>  <molecule>
c1ccc2[nH]c(-c3cscn3)nc2c1 [THIABENDAZOLE]

>  <Ki>
Not Active

$$$$
>  <molecule>
NNC(=O)c1ccncc1 [ISONIAZID]

>  <Ki>
Not Active

$$$$
>  <molecule>
COc1ccc(C(CN(C)C)C2(O)CCCCC2)cc1 (centres undefined) [VENLAFAXINE]

>  <Ki>
Not Active

$$$$
>  <molecule>
Nc1nc(=O)[nH]cc1F [FLUCYTOSINE]

>  <Ki>
Not Active

$$$$
>  <molecule>
COc1c(N2CCNC(C)C2)c(F)cc2c(=O)c(C(=O)O)cn(C3CC3)c12 (centres undefined) [GATIFLOXACIN]

>  <Ki>
Not Active

$$$$
>  <molecule>
CO[C@@H]1[C@@H](O[C@@H]2O[C@H](C)[C@@H](O[C@H]3C[C@@](C)(O)[C@@H](OC(=O)CC(C)C)[C@H](C)O3)[C@H](N(C)C)[C@H]2O)[C@@H](CC=O)C[C@@H](C)[C@@H](O)/C=C/C=C/C[C@@H](C)OC(=O)C[C@H]1O [KITASAMYCIN]

>  <Ki>
Not Active

$$$$
>  <molecule>
N=C(N)NCCCCNC(=N)N.O=S(=O)(O)O [ARCAINE SULFATE]

>  <Ki>
Not Active

$$$$
>  <molecule>
CCOC(=O)OC(C)OC1=C(C(=O)Nc2ccccn2)N(C)S(=O)(=O)c2ccccc21 (centres undefined) [AMPIROXICAM]

>  <Ki>
Not Active

$$$$
>  <molecule>
CN(N=O)C(=O)N[C@@H](C=O)[C@@H](O)[C@H](O)[C@H](O)CO [STREPTOZOCIN]

>  <Ki>
Not Active

$$$$
>  <molecule>
c1ccc2c(c1)cc1ccc3cccc4ccc2c1c34

>  <Ki>
Not Active

$$$$
>  <molecule>
C=C1CC[C@H](O)C/C1=C/C=C1\CCC[C@]2(C)[C@@H]([C@H](C)/C=C/[C@H](C)C(C)C)CC[C@@H]12 [ERGOCALCIFEROL]

>  <Ki>
Not Active

$$$$
>  <molecule>
CCCCOC(=O)c1ccc(N)cc1 [BUTAMBEN]

>  <Ki>
Not Active

$$$$
>  <molecule>
CCCSc1ccc2nc(NC(=O)OC)[nH]c2c1 [ALBENDAZOLE]

>  <Ki>
Not Active

$$$$
>  <molecule>
CC1(C)S[C@@H]2[C@H](NC(=O)[C@H](N)c3ccc(O)cc3)C(=O)N2[C@H]1C(=O)O [AMOXICILLIN]

>  <Ki>
Not Active

$$$$
>  <molecule>
NCC(=O)O [GLYCINE]

>  <Ki>
Not Active

$$$$
>  <molecule>
CC(CCc1ccccc1)NCC(O)c1ccc(O)c(C(N)=O)c1 (centres undefined) [LABETALOL]

>  <Ki>
Not Active

$$$$
>  <molecule>
CCOC(=O)c1ccc(N)cc1 [BENZOCAINE]

>  <Ki>
Not Active

$$$$
>  <molecule>
Cc1ccccc1N1CCN(CCc2nnc3n2CCCC3)CC1 [DAPIPRAZOLE]

>  <Ki>
Not Active

$$$$
>  <molecule>
COC(=O)C1=C(C)NC(C)=C(C(=O)OC)C1c1ccccc1[N+](=O)[O-] [NIFEDIPINE]

>  <Ki>
Not Active

$$$$
>  <molecule>
NS(=O)(=O)c1cc2c(cc1Cl)NCNS2(=O)=O [HYDROCHLOROTHIAZIDE]

>  <Ki>
Not Active

$$$$
>  <molecule>
CC1(C)[C@H]2CC[C@]1(C)C(=O)C2 [(-)-CAMPHOR]

>  <Ki>
Not Active

$$$$
>  <molecule>
CC(C)[C@H](N)C(=O)OCCOCn1cnc2c(=O)nc(N)[nH]c21 [VALACYCLOVIR]

>  <Ki>
Not Active

$$$$
>  <molecule>
COC1=CC(=O)C[C@@H](C)[C@]12Oc1c(Cl)c(OC)cc(OC)c1C2=O [GRISEOFULVIN]

>  <Ki>
Not Active

$$$$
>  <molecule>
CC=CC(=O)N(CC)c1ccccc1C

>  <Ki>
Not Active

$$$$
>  <molecule>
C[C@]12Cc3c[nH]nc3C[C@@H]1CC[C@@H]1[C@@H]2CC[C@@]2(C)[C@H]1CC[C@]2(C)O [STANOZOLOL]

>  <Ki>
Not Active

$$$$
>  <molecule>
COc1ccc(CN(CCN(C)C)c2ccccn2)cc1 [PYRILAMINE]

>  <Ki>
Not Active

$$$$
>  <molecule>
CC(C)(S)[C@@H](N)C(=O)O [PENICILLAMINE]

>  <Ki>
Not Active

$$$$
>  <molecule>
CCCC[C@@H](CC)COC(=O)c1ccccc1C(=O)OC[C@@H](CC)CCCC [BIS(2-ETHYLHEXYL)PHTHALATE]

>  <Ki>
Not Active

$$$$
>  <molecule>
CCc1ccc(C(=O)C(C)CN2CCCCC2)cc1 (centres undefined) [EPERISONE]

>  <Ki>
Not Active

$$$$
>  <molecule>
NC(=O)c1ccccc1O [SALICYLAMIDE]

>  <Ki>
Not Active

$$$$
>  <molecule>
CC[C@H]1OC(=O)[C@H](C)[C@@H](O[C@H]2C[C@@](C)(OC)[C@@H](O)[C@H](C)O2)[C@H](C)[C@@H](O[C@@H]2O[C@H](C)C[C@H](N(C)C)[C@H]2O)[C@](C)(O)C[C@@H](C)/C(=N\OCOCCOC)[C@H](C)[C@@H](O)[C@]1(C)O [ROXITHROMYCIN]

>  <Ki>
Not Active

$$$$
>  <molecule>
NC(CO)(CO)CO [TROMETHAMINE]

>  <Ki>
Not Active

$$$$
